- Tested on: A549
- PROTOCOL DETAILS: Cytotoxicity against human A549 cells after 24 hrs by MTT assay
- Format: functional, cell-based
- CONDITION SET: A549, 24 h
pIC50: −log10 of the molar value.
Values of pIC50 greater than or equal to 5 map to criterion met; values below map to criterion not met.

MOLECULE: Cc1cccc(N(C(=O)c2cccs2)C(C(=O)NC2CCCCC2)c2ccccc2)c1C (stereo not drawn)
ASSIGNED CLASS: criterion not met

MOLECULE: Cc1cc(C)c(N(C(=O)c2sc(C)nc2C)C(C(=O)NC2CCCCC2)c2ccccc2)c(C)c1 (stereo not drawn)
ASSIGNED CLASS: criterion met

MOLECULE: Cc1ccc(N(C(=O)c2sc(C)nc2C)C(C(=O)NC2CCCCC2)c2ccccc2)cc1 (stereo not drawn)
ASSIGNED CLASS: criterion met

----------
- PROTOCOL DETAILS: Selectivity index, ratio of IC50 for CHOK1 cells to MIC for Mycobacterium tuberculosis H37Rv
- Format: toxicity
- CONDITION SET: hamster, read-out: Selectivity Index
Values of selectivity ratio greater than or equal to 10 map to Satisfied; values below map to Not satisfied.

COMPOUND: Cc1cccc(N(C(=O)c2cccs2)C(C(=O)NC2CCCCC2)c2ccccc2)c1C (stereo not given)
ASSIGNED CLASS: Satisfied

COMPOUND: Cc1cccc(N(C(=O)c2c(C)noc2C)C(C(=O)NC2CCCCC2)c2cccnc2)c1C (stereo not given)
ASSIGNED CLASS: Satisfied

COMPOUND: Cc1ccc(N(C(=O)c2sc(C)nc2C)C(C(=O)NC2CCCCC2)c2cccnc2)cc1 (stereo not given)
ASSIGNED CLASS: Satisfied

COMPOUND: Cc1nc(C)c(C(=O)N(c2cccc(C)c2C)C(C(=O)NCc2ccccc2)c2ccccc2)s1 (stereo not given)
ASSIGNED CLASS: Not satisfied

COMPOUND: Cc1ccc(N(C(=O)c2sc(C)nc2C)C(C(=O)NC2CCCCC2)c2ccccc2)c(C)c1 (stereo not given)
ASSIGNED CLASS: Not satisfied

COMPOUND: Cc1cccc(N(C(=O)c2ccncc2)C(C(=O)NC2CCCCC2)c2ccccc2)c1C (stereo not given)
ASSIGNED CLASS: Satisfied

COMPOUND: Cc1ccc(N(C(=O)c2sc(C)nc2C)C(C(=O)NC2CCCCC2)c2ccc(Cl)cc2)cc1 (stereo not given)
ASSIGNED CLASS: Not satisfied

COMPOUND: Cc1ccc(N(C(=O)c2ccc[nH]2)C(C(=O)NC2CCCCC2)c2cccnc2)cc1 (stereo not given)
ASSIGNED CLASS: Satisfied

COMPOUND: Cc1ccc(N(C(=O)c2sc(C)nc2C)C(C(=O)NC2CCCCC2)c2c(F)cc(Br)cc2F)cc1 (stereo not given)
ASSIGNED CLASS: Not satisfied

COMPOUND: Cc1nc(C)c(C(=O)N(c2cccc(C)c2C)C(C(=O)NC2CCCCC2)c2ccncc2)s1 (stereo not given)
ASSIGNED CLASS: Satisfied

----------
- System: A549
- PROTOCOL DETAILS: Cytotoxicity against human A549 cells after 24 hrs by MTT assay
- Format: functional, cell-based
- CONDITION SET: A549, 24 h
pIC50: −log10 of the molar value.
Listed next: entries and their corresponding pIC50.
METRIC: pIC50

COMPOUND: Cc1ccc(N(C(=O)c2sc(C)nc2C)C(C(=O)NC2CCCCC2)c2cccc(C(F)(F)F)c2)cc1 (stereo not given)
OBSERVED MEASUREMENT: 4.86
//
COMPOUND: Cc1ccc(N(C(=O)c2sc(C)nc2C)C(C(=O)NC2CCCCC2)c2ccccc2)c(C)c1 (stereo not given)
OBSERVED MEASUREMENT: 5.06
//
COMPOUND: Cc1ccc(N(C(=O)c2sc(C)nc2C)C(C(=O)NC2CCCCC2)c2cccnc2)cc1 (stereo not given)
OBSERVED MEASUREMENT: 4.93
//
COMPOUND: Cc1cccc(N(C(=O)c2ccncc2)C(C(=O)NC2CCCCC2)c2cccnc2)c1C (stereo not given)
OBSERVED MEASUREMENT: 4.93
//
COMPOUND: Cc1cccc(N(C(=O)c2ccncc2)C(C(=O)NC2CCCCC2)c2ccccc2)c1C (stereo not given)
OBSERVED MEASUREMENT: 4.89

Entry source: ChEMBL document CHEMBL4422644
